procedure.details: folding stability dG unfold from trypsin proteolysis; higher = more stable
Entries and their folding stability dG unfold values follow.
# include the unit after the value

SAGGPDNIRIDLKIEPTGDSVKITFPIYNPNGSPIKVEMEYQRVGGKKFFRMKIEFGGRPIELWIPISAGGS [r16_476_TrROS]	3.4 kcal/mol
SAGMEVKVETVTIEIEVDGKKIEIKVVRVEVRNEDGSIYEFTFIEITVPEDVSEEELRKLLEELGLEPESAG [r5_486_TrROS_Hall]	2.64 kcal/mol
SAGGSAGGSAGYIKTEHEVTVMEKDPDGGTKMIEVPVKITIPIIPIPPEALEKNPEALKKFLSAGGSAGGSA [r18_114_TrROS]	0.461 kcal/mol
SAGGSAGGVKIEVETRTETLPDGSTRTVMRVKIELPAPPPPPPPPTRTVTETTEDGETRTTTVRSAGGSAGG [r6_778_TrROS_Hall]	0.626 kcal/mol
SAGGSAGGSAGGALEEKAKEIIEELKKKGIKVKEVKTSPNEITITFEDGSTKKIPIINGSAGGSAGGSAGGS [r10_169_JUSTAS]	2.55 kcal/mol

Item: SAGGMIRIERDGDRLTIQIPMPPGQPPTPEQVEEFARDILKKLGPDVRVKDVSHDPNGGFTIELKVPSAGGS [r8_103_TrROS] | folding stability dG unfold: 1.48 kcal/mol

Item: SAGGSAGGSAKVVVDEVEVEVFKNEDGEEVLRVRFKKTGEEVEIPLEDLEKLELPPGAVVEPSAGGSAGGSA [r18_288_TrROS_Hall] | folding stability dG unfold: 0.246 kcal/mol

Item: SAGGSAGGSAGKKIKLPKELKGKKIEVKEVEIEVEVNGKKYKFKAKIVKFDGKIIAIELESAGGSAGGSAGG [r11_21_TrROS_Hall] | folding stability dG unfold: 1.36 kcal/mol

Item: SAGGSAGGSPGPGTEVEVRYRHPATGRWYPGVAVFTPDGSIRVYFPALGTTVTVPPHTVEPVPSAGGSAGGS [r12_726_TrMRF] | folding stability dG unfold: 1.98 kcal/mol

Item: SAGPKIEIHYTPNGIHLTIELPGEWIWMMIPVPPGEKVKIRLPGNGLEITARPYDDYVMIRIRIPDAPSAGG [r19_384_TrROS] | folding stability dG unfold: 3.59 kcal/mol

Item: SAMLTILSVETHTLPNGEEIVTVTLKTPDLETLDALLAELGLTGTRDPDDPQVVTITTSREKVQEIKEKSAG [r14_777_JUSTAS] | folding stability dG unfold: 3.34 kcal/mol

Item: SPRTTVSFEVYMPPDQLKQNSIEDIADRVRDHFPGYKIKGIDIKFEPYPDPENGRPWVRVTVMIRVEPPESA [r9_1189_TrROS] | folding stability dG unfold: 2.34 kcal/mol

Item: SKKYFLKIEIEIEVELRPLPDEPGYVVLRARIKIKITLVKVDPETGEIVEEKEFEIEIEIELVFPPGVKPSA [r9_1234_TrROS_Hall] | folding stability dG unfold: 4.35 kcal/mol

Item: SKETETVEMEITITVNGKKVKIKATFTRNKDGSITMTITYEDGKKIEITFTNGKIVIVDKKTKKIIAEIPSA [r9_970_TrROS_Hall] | folding stability dG unfold: 2.54 kcal/mol

Item: SAGGGKLFVTEDAVLLELLYPETGEPYLAVFNPPTGLVTVYFPNRLKALFKIDPDGNLTLVKIEPANSAGGS [r16_127_TrMRF] | folding stability dG unfold: 2.06 kcal/mol
